FYI, the data here is from PubChem BioAssay.

- target system: Alpha-2C adrenergic receptor (Homo sapiens)
- assay: modulators of alpha2C/GIRK thallium flux, primary screen, cell-based, HEK293 alpha2C/GIRK1/2 (AID 624);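 note: slope of fluorescence ratio to pre-addition baseline per second over 15 to 24 s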
- condition info: thallium flux BTC fluorescence, at 10 µM, actives lie on both sides
Measured slope by item
Output spec: single numeric token, no unit.

| compound | slope |
| --- | --- |
| COc1ccc(-c2oc3ncn4nc(Cc5ccccc5)nc4c3c2-c2ccc(OC)cc2)cc1 | 0.0116 |
| CO[C@H]1C=CO[C@@]2(C)Oc3c(C)c(O)c4c(O)c(c(C=NN5CCN(C)CC5)c(O)c4c3C2=O)NC(=O)C(C)=CC=C[C@H](C)[C@H](O)[C@@H](C)[C@@H](O)[C@@H](C)[C@H](OC(C)=O)[C@@H]1C | 0.00466 |
| CCCCCCn1cc(C(=O)O)c(=O)c2ccccc21 | 0.00525 |

Enquiry: Need slope, item COc1cc(-c2nn3c(COc4ccccc4)nnc3s2)cc(OC)c1OC
Return: 0.00817

Enquiry: Now the compound CCCCCNC(=O)c1c(N)n(/N=C/c2ccco2)c2nc3ccccc3nc12
Return: 0.00624

Enquiry: Now the compound OCCN1CCN(CCCN2c3ccccc3Sc3ccc(C(F)(F)F)cc32)CC1
Return: 0.00393

---

- target system: Muscarinic acetylcholine receptor M4 (Homo sapiens)
- assay: compounds altering M4/GIRK thallium flux, either direction, primary screen, M4 allosteric agonist project, cell-based, HEK293 M4/GIRK, BTC-AM (AID 625);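 note: thallium influx through GIRK channels coupled to M4 in HEK293 cells with BTC-AM dye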
- condition info: at 10 µM, actives lie on both sides
value type: fluorescence slope
Output spec: single numeric token, no unit.

Sample records with fluorescence slope:
| molecule | fluorescence slope |
| --- | --- |
| COc1ccc(C(=O)NCCCCCC(=O)O)cc1OC | 0.00503 |
| CCCN(CCC)C(=O)CC(c1ccc(F)cc1)c1ccco1 (centres undefined) | 0.00507 |
| N#CCc1nc2c3c4c(sc3ncn2n1)CCCC4 | 0.00496 |

Enquiry: Need fluorescence slope, item CCN1CCc2c(C#N)c(N3CCOCC3)nc(NCc3ccccc3)c2C1
Return: 0.00486

Enquiry: Now the molecule Cc1c(C=NCCOCc2ccccc2)cnn1C
Return: 0.00645

Enquiry: Now the molecule Cn1c(=O)c2c(nc(Oc3ccc4c(c3)OCO4)n2Cc2ccc(F)cc2)n(C)c1=O
Return: 0.00586

Enquiry: Now the molecule Cc1nc2ccccc2cc1O
Return: 0.00432

Enquiry: Now the molecule CCOC(=O)c1c(-c2cccs2)csc1NC(=O)CCCC(=O)O
Return: 0.00466

Enquiry: Now the molecule O=C(O)c1c[nH]c2ccc(S(=O)(=O)N3CCOCC3)cc12
Return: 0.00433

---

- assay: inhibitors of E-selectin induction by TNFa, primary screen, imaging, HUVEC, immunofluorescence, MLSMR starter and 10KST1 sets (AID 487);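 note: 100% = median nuclei count of all wells on the same plate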
- condition info: HUVEC TNFalpha-induced E-selectin immunofluorescence imaging, at 2 µM; measured here: cell number, toxicity
value type: nuclei count
Record the result as number plus unit.

Sample records with nuclei count:
| compound | value type | result |
| --- | --- | --- |
| c1ccc(Cc2nnc3n2CCCCC3)cc1 | nuclei count | 114% |
| CCCCCCC(=O)N1CCN(c2cc3c(cc2F)c(=O)c(C(=O)O)cn3CC)CC1 | nuclei count | 224% |
| O=c1c(F)cn(C2CCCO2)c(=O)n1Cc1ccccc1Cl (centres undefined) | nuclei count | 203% |

Kindly review the next compound as well.
Enquiry: Need nuclei count, item CCn1nnc(C(=O)O)c1C(=O)O
Return: 113%
